Tested on: K562
Assay: Antitumor activity against human K562 cells assessed as growth inhibition at 10 uM relative to control
Format: functional
Details: read-out: GI
reported.endpoint: inhibition of growth at 10 µM

[[record]]
sample_smiles = "N#Cc1c(-c2ccc(Cl)cc2)nc(NN2C(=O)c3ccccc3C2=O)nc1N1CCOCC1"
reported_endpoint = "inhibition of growth at 10 µM"
result = "< 1%"


Fill in: K562 inhibition of growth at 10 µM for N#Cc1c(-c2ccc(Cl)cc2)nc(NN)nc1N1CCOCC1 = < 1%

Record CC1=NN(c2nc(-c3ccc(Cl)cc3)c(C#N)c(N3CCOCC3)n2)C(=O)C1 / K562, inhibition of growth at 10 µM recorded as < 1%

Measured on K562, N#Cc1c(-c2ccc(Cl)cc2)nc(N/N=C2/C(=O)Nc3ccc(Cl)cc32)nc1N1CCOCC1 has a documented inhibition of growth at 10 µM of < 1%

Entry N#Cc1c(-c2ccc(Cl)cc2)nc(N/N=C2/C(=O)Nc3ccccc32)nc1N1CCOCC1 ; assay system K562; inhibition of growth at 10 µM recorded at < 1%

###

Tested on: LOX IMVI
Test: Antitumor activity against human LOX IMVI cells assessed as growth inhibition at 10 uM relative to control
Type: functional
Details: read-out: GI
Quick reference: inhibition of growth at 10 µM of the listed items.

[[record]]
sample_smiles = "CSc1nc(-c2ccc(Cl)cc2)c(C#N)c(N2CCOCC2)n1"
reported_endpoint = "inhibition of growth at 10 µM"
result = "< 1%"

[[record]]
sample_smiles = "CSc1nc(O)c(C#N)c(-c2ccc(Cl)cc2)n1"
reported_endpoint = "inhibition of growth at 10 µM"
result = "< 1%"

[[record]]
sample_smiles = "N#Cc1c(-c2ccc(Cl)cc2)nc(N/N=C2/C(=O)Nc3ccccc32)nc1N1CCOCC1"
reported_endpoint = "inhibition of growth at 10 µM"
result = "< 1%"


// below: inhibition of growth at 10 µM requested for another compound
Summary for this compound, N#Cc1c(-c2ccc(Cl)cc2)nc(N2NC(=O)CC2=N)nc1N1CCOCC1 : inhibition of growth at 10 µM is < 1%

###

System: SK-MEL-5
Experiment: Antitumor activity against human SK-MEL-5 cells assessed as growth inhibition at 10 uM relative to control
Assay type: functional
Details: read-out: GI
inhibition of growth at 10 µM values, listed per item

[[record]]
sample_smiles = "CSc1nc(O)c(C#N)c(-c2ccc(Cl)cc2)n1"
result = "< 1%"


Entry under test: Cc1cc(C)n(-c2nc(-c3ccc(Cl)cc3)c(C#N)c(N3CCOCC3)n2)n1 . Its inhibition of growth at 10 µM was 14.5%

// N#Cc1c(-c2ccc(Cl)cc2)nc(N/N=C/c2cccc(Cl)c2)nc1N1CCOCC1 : inhibition of growth at 10 µM value = < 1%

response.value for COc1cc(/C=N/Nc2nc(-c3ccc(Cl)cc3)c(C#N)c(N3CCOCC3)n2)cc(OC)c1OC (field: inhibition of growth at 10 µM) = 71%

The compound identified as N#Cc1c(-c2ccc(Cl)cc2)nc(N2NC(=O)CC2=N)nc1N1CCOCC1 registered its inhibition of growth at 10 µM at < 1%

Per the record, N#Cc1c(-c2ccc(Cl)cc2)nc(N/N=C2/C(=O)Nc3ccc(Cl)cc32)nc1N1CCOCC1 has inhibition of growth at 10 µM of < 1%

Per the records, this compound ( N#Cc1c(-c2ccc(Cl)cc2)nc(N/N=C/c2cccc(F)c2)nc1N1CCOCC1 ) has inhibition of growth at 10 µM equal to < 1%

###

Test system: SF-268
Experiment: Antitumor activity against human SF-268 cells assessed as growth inhibition at 10 uM relative to control
Format: functional
Conditions: read-out: GI
reported.endpoint: inhibition of growth at 10 µM

[[record]]
sample_smiles = "N#Cc1c(-c2ccc(Cl)cc2)nc(NN2C(=O)CCC2=O)nc1N1CCOCC1"
result = "< 1%"

[[record]]
sample_smiles = "N#Cc1c(-c2ccc(Cl)cc2)nc(N/N=C/c2cccc(F)c2)nc1N1CCOCC1"
result = "< 1%"

[[record]]
sample_smiles = "Cc1cc(C)n(-c2nc(-c3ccc(Cl)cc3)c(C#N)c(N3CCOCC3)n2)n1"
result = "14.4%"

[[record]]
sample_smiles = "N#Cc1c(-c2ccc(Cl)cc2)[nH]c(=S)[nH]c1=O"
result = "< 1%"


Note: attention shifts to another entry.
Just so you know, measured inhibition of growth at 10 µM for N#Cc1c(-c2ccc(Cl)cc2)nc(N/N=C2/C(=O)Nc3ccc(Br)cc32)nc1N1CCOCC1 came out at < 1%

###

Tested on: A498
Assay: Antitumor activity against human A498 cells assessed as growth inhibition at 10 uM relative to control
Format: functional
Settings: read-out: GI
reported.endpoint: inhibition of growth at 10 µM (%)
API: value field is a number in %; no unit string.

[[record]]
sample_smiles = "N#Cc1c(-c2ccc(Cl)cc2)nc(N/N=C/c2cccc(F)c2)nc1N1CCOCC1"
measured_number = 17


Documented inhibition of growth at 10 µM of N#Cc1c(-c2ccc(Cl)cc2)nc(N/N=C2/C(=O)Nc3ccc(Cl)cc32)nc1N1CCOCC1 : 26.9

Kindly note the recorded inhibition of growth at 10 µM for N#Cc1c(-c2ccc(Cl)cc2)nc(NN)nc1N1CCOCC1 , which is 27.8

Consider CSc1nc(-c2ccc(Cl)cc2)c(C#N)c(N2CCOCC2)n1 . Its measured inhibition of growth at 10 µM is 54.3

Input N#Cc1c(-c2ccc(Cl)cc2)nc(N/N=C/c2cccc([N+](=O)[O-])c2)nc1N1CCOCC1 . Output inhibition of growth at 10 µM: 47.5

###

System: NCI-H226
Assay: Antitumor activity against human NCI-H226 cells assessed as growth inhibition at 10 uM relative to control
Format: functional
Conditions: read-out: GI
inhibition of growth at 10 µM listing for selected compounds.

[[record]]
sample_smiles = "N#Cc1c(-c2ccc(Cl)cc2)[nH]c(=S)[nH]c1=O"
result = "< 1%"


Looking up N#Cc1c(-c2ccc(Cl)cc2)nc(NN2C(=O)c3ccccc3C2=O)nc1N1CCOCC1 , I found its inhibition of growth at 10 µM recorded as < 1%

Form field inhibition of growth at 10 µM, entry N#Cc1c(-c2ccc(Cl)cc2)nc(N/N=C/c2cccc(F)c2)nc1N1CCOCC1 : < 1%

###

Below is a list of entries, each paired with its recorded inhibition of growth at 10 µM value.
Test system: OVCAR-8
Experiment: Antitumor activity against human OVCAR-8 cells assessed as growth inhibition at 10 uM relative to control
Type: functional
Conditions: read-out: GI

[[record]]
sample_smiles = "N#Cc1c(-c2ccc(Cl)cc2)nc(N/N=C/c2cccc(O)c2)nc1N1CCOCC1"
result = "34.6%"


// sample N#Cc1c(-c2ccc(Cl)cc2)nc(N2NC(=O)CC2=N)nc1N1CCOCC1 , its inhibition of growth at 10 µM was < 1%

Noted for CC1=NN(c2nc(-c3ccc(Cl)cc3)c(C#N)c(N3CCOCC3)n2)C(=O)C1 : its inhibition of growth at 10 µM reads < 1%

Entry under test: N#Cc1c(-c2ccc(Cl)cc2)nc(NN)nc1N1CCOCC1 . Its inhibition of growth at 10 µM was < 1%

Lookup result for CSc1nc(Cl)c(C#N)c(-c2ccc(Cl)cc2)n1 ; measured inhibition of growth at 10 µM: < 1%

The compound identified as N#Cc1c(-c2ccc(Cl)cc2)[nH]c(=S)[nH]c1=O registered its inhibition of growth at 10 µM at < 1%

Per the records, this compound ( N#Cc1c(-c2ccc(Cl)cc2)nc(N/N=C/c2cccc([N+](=O)[O-])c2)nc1N1CCOCC1 ) has inhibition of growth at 10 µM equal to 12.5%

Per the record, N#Cc1c(-c2ccc(Cl)cc2)nc(N/N=C/c2ccco2)nc1N1CCOCC1 has inhibition of growth at 10 µM of 21.1%

Notebook: COc1cc(/C=N/Nc2nc(-c3ccc(Cl)cc3)c(C#N)c(N3CCOCC3)n2)cc(OC)c1OC , inhibition of growth at 10 µM read as 46.6%
